Tested on: TGFβ signal
Experiment: TGFβ signal inhibitory activity, (SBE)4-Luc reporter in A549 cells (Test Examples 1A and 1B)
Type: cell-based, human
Details: Homo sapiens, A549; test compound 10 µM; Reference Examples, Table 1B; read-out: TGFβ inhibition rate, %
Quick reference: inhibition at 10 µM of the listed items.
Record the result as a number with its unit.

These solved cases illustrate the format of a correct answer.
>>> result("COc1cc2c(Oc3ccc(C)cc3C(=O)c3ccccc3)ccnc2cc1OCC1CO1 (stereo not shown)")
"100%"
>>> result("COc1cc2c(Oc3ccc(C)cc3C(=O)c3ccccc3)ccnc2cc1OCCCN1CCOCC1")
"100%"
>>> result("CCC(=O)c1cc(Cl)ccc1Oc1ccnc2cc(OC)c(OC)cc12")
"100%"
>>> result("COc1cc2nccc(Oc3cc4c5c(c3C=O)CCCN5CCC4)c2cc1OC")
"53%"

Documented inhibition at 10 µM of CCOC(=O)c1ccc(C)cc1Oc1ccnc2cc(OC)c(OC)cc12 : 99%

Documented inhibition at 10 µM of COc1cc2c(Oc3ccc(C)cc3C(=O)c3ccccc3)ccnc2cc1OCCCN1CCNCC1 : 100%

Documented inhibition at 10 µM of CCC(=O)c1cc(I)ccc1Oc1ccnc2cc(OC)c(OC)cc12 : 98%

Documented inhibition at 10 µM of COc1ccc(C(C)=O)c(Oc2ccnc3cc(OC)c(OC)cc23)c1 : 98%

Documented inhibition at 10 µM of COc1ccc(Oc2ccnc3cc(OCCN4CCOCC4)c(OC)cc23)c(C(C)=O)c1 : 100%

Documented inhibition at 10 µM of CCN(CC)CCCCOc1cc2nccc(Oc3ccc(C)cc3C(=O)c3ccccc3)c2cc1OC : 100%

Documented inhibition at 10 µM of CCC(=O)c1cc(OC(F)(F)F)ccc1Oc1ccnc2cc(OC)c(OC)cc12 : 99%

Documented inhibition at 10 µM of COc1cc2nccc(Oc3ccc(C)cc3C(=O)c3ccno3)c2cc1OC : 98%

Documented inhibition at 10 µM of CCN(CC)CC(O)COc1cc2nccc(Oc3ccc(C)cc3C(=O)c3ccccc3)c2cc1OC (stereo not shown) : 100%

Documented inhibition at 10 µM of COc1cc2c(Oc3ccc(C)cc3C(=O)c3ccccc3)ccnc2cc1OCCCCn1ccnc1 : 100%

Documented inhibition at 10 µM of COc1ccc(Oc2ccnc3cc(OC)c(OC)cc23)c(/C=C/c2ccccc2)c1 : 54%

Documented inhibition at 10 µM of CCCOC(=O)c1cc(-c2ccc(F)cc2F)ccc1Oc1ccnc2cc(OC)c(OC)cc12 : 65%

Documented inhibition at 10 µM of CCOC(=O)c1cc2cc(Oc3ccnc4cc(OC)c(OC)cc34)ccc2[nH]1 : 81%

Documented inhibition at 10 µM of COc1cc2nccc(Oc3ccc(C)cc3Nc3ccccc3)c2cc1OC : 64%

Documented inhibition at 10 µM of COc1cc2c(Oc3ccc(C)cc3C(=O)c3ccccc3)ccnc2cc1OCCCCl : 99%

Documented inhibition at 10 µM of CCC(=O)c1cc(C(C)(C)C)ccc1Oc1ccnc2cc(OC)c(OC)cc12 : 62%

Documented inhibition at 10 µM of COc1cc2nccc(Oc3ccc(C)cc3C(=O)CCC3CCCC3)c2cc1OC : 84%

Documented inhibition at 10 µM of COc1cc2nccc(Oc3ccc(Cl)cc3C(=O)Nc3ccc(Cl)c(Cl)c3)c2cc1OC : 82%

###

Quick reference: inhibition at 3 µM of the listed items.
System: TGFβ signal
Assay: TGFβ signal inhibitory activity, (SBE)4-Luc reporter in A549 cells (Test Examples 1A and 1B)
Assay type: cell-based, human
Details: Homo sapiens, A549; 3 µM; compounds of Reference Examples (Test Example 1B); read-out: TGFβ inhibition rate, %
Numbers only; they are read as %.

These solved cases illustrate the format of a correct answer.
>>> result("COc1cc2nccc(Oc3ccc(C)nc3C(=O)c3cccc(C)n3)c2cc1OC")
71
>>> result("COc1cc2nccc(Oc3ccc(C)nc3-c3ccc(C)cc3)c2cc1OC")
68
>>> result("COc1cc2nccc(Oc3cc(C)c(C)nc3-c3ncccc3C)c2cc1OC")
52
>>> result("COc1cc2nccc(Oc3ccc(C)nc3-c3ccccc3Cl)c2cc1OC")
88
>>> result("COc1cc2nccc(Oc3ccc(C)nc3C(O)c3ccccc3)c2cc1OC (centres unmarked)")
91

Per the reported TGFβ signal data, COc1cc2nccc(Oc3cc(C)c(C)nc3-c3cccc(C)n3)c2cc1OC has inhibition at 3 µM of 94

Per the reported TGFβ signal data, COc1cc2nccc(Oc3cc4ccccc4nc3OC3CCCC3)c2cc1OC has inhibition at 3 µM of 45

Per the reported TGFβ signal data, COc1cc2c(Oc3cc4cccnc4nc3C)ccnc2cc1OCc1ccccc1 has inhibition at 3 µM of 71

###

Quick reference: inhibition at 3 µM of the listed items.
Test system: TGFβ signal
Assay: TGFβ signal inhibitory activity, (SBE)4-Luc reporter in A549 cells (Test Examples 1A and 1B)
Assay type: cell-based, human
Conditions: Homo sapiens, A549; test compound 3 µM; TGFβ-1 2 ng/ml, 4 hr; Table 1A; read-out: TGFβ inhibition rate, %
Numbers only; they are read as %.

>>> result("Cc1cc(Oc2ccnc3c(F)cc(F)cc23)c(-c2ccccn2)nc1C")
43
>>> result("COc1cc2c(Oc3cc4cccnc4nc3-c3ccccc3)ccnc2cc1C")
99
>>> result("COc1cc2nccc(Oc3cc4cccnc4nc3-c3ccc(Cl)cc3)c2cc1OC")
69

Documented inhibition at 3 µM of Cc1cc(Oc2ccnc3ccc(-c4csc5ccccc45)cc23)c(-c2ccccn2)nc1C : 75

Documented inhibition at 3 µM of Cc1cc(Oc2ccnc3ccc(-c4cn[nH]c4)cc23)c(-c2ccccn2)nc1C : 100

Documented inhibition at 3 µM of c1ccc(-c2nc3ncccc3cc2Oc2ccnc3cccnc23)cc1 : 26

Documented inhibition at 3 µM of COc1cc2ncnc(Oc3cc(C)c(C)nc3-c3ncccn3)c2cc1OC : 93

Documented inhibition at 3 µM of CCc1ccc(Oc2ccnc3ccc(O)cc23)c(-c2ccccn2)n1 : 100

Documented inhibition at 3 µM of COc1ccc2ncnc(Oc3cc4cccnc4nc3-c3ccccc3)c2c1 : 61

Documented inhibition at 3 µM of Cc1cc(Oc2ccnc3cc(-c4cc5ccccc5o4)ccc23)c(-c2ccccn2)nc1C : 57

###

Tested on: TGFβ signal
Test: TGFβ signal inhibitory activity, (SBE)4-Luc reporter in A549 cells (Test Examples 1A and 1B)
Assay type: cell-based, human
Conditions: Homo sapiens, A549; 3 µM; compounds of Reference Examples (Test Example 1B); read-out: TGFβ inhibition rate, %
Outcome label depends on inhibition at 3 µM relative to 50%: at/above gives class 1, below gives class 0.

Known results for molecules:
>>> class("COc1cc2nccc(Oc3ccc(C)nc3-c3ccsc3)c2cc1OC")
"class 1"
>>> class("COc1cc2c(Oc3cc4ccccc4nc3C(C)=O)ccnc2cc1OCCCO")
"class 1"
>>> class("Cc1ccc(-c2nc(C)c(C)cc2Oc2ccnc3cc(C(F)(F)F)ccc23)nc1")
"class 1"
>>> class("COc1cc2c(Oc3cc(C)c(C)nc3-c3ccccc3)ccnc2cc1O")
"class 1"
>>> class("COc1cc2c(Oc3cc(C)c(C)nc3-c3ccccn3)ccnc2cc1OCc1ccccc1")
"class 1"

Could you tell me if the measured inhibition at 3 µM of COc1cc2nccc(Oc3cc4ccccc4nc3CN(C(C)C)C(C)C)c2cc1OC reaches 50% or more?
class 0

Could you tell me if the measured inhibition at 3 µM of COc1cc2c(Oc3cc(C)c(C)nc3-c3ccccc3)ccnc2cc1OCCO reaches 50% or more?
class 1

Could you tell me if the measured inhibition at 3 µM of COc1cc2nccc(Oc3cc(C(C)(C)C)c(OC)cc3C(C)=O)c2cc1OC reaches 50% or more?
class 0

Could you tell me if the measured inhibition at 3 µM of COc1cc2c(Oc3cc(C)c(C)nc3-c3cccc(C)n3)ccnc2cc1OCCCO reaches 50% or more?
class 1

Could you tell me if the measured inhibition at 3 µM of CCCCOc1ccc(Oc2ccnc3cc(OC)c(OC)cc23)c(C(C)=O)c1 reaches 50% or more?
class 0

Could you tell me if the measured inhibition at 3 µM of COc1cc2c(Oc3cc4ccccc4nc3C)ccnc2cc1OCCN1C(=O)c2ccccc2C1=O reaches 50% or more?
class 1

Could you tell me if the measured inhibition at 3 µM of COc1cc2c(Oc3cc(C)c(C)nc3-c3nc(C)c(C)s3)ccnc2cc1OCCCO reaches 50% or more?
class 1

Could you tell me if the measured inhibition at 3 µM of COc1cc2c(Oc3cc4ccccc4nc3C)ccnc2cc1OCCn1ccnc1 reaches 50% or more?
class 1

Could you tell me if the measured inhibition at 3 µM of COc1cc2c(Oc3cc4ccccc4nc3C)ccnc2cc1OCCNC(=N)N reaches 50% or more?
class 0

Could you tell me if the measured inhibition at 3 µM of COc1cc2c(Oc3cc(C)c(C)nc3-c3cccc(C)n3)ccnc2cc1OCCO reaches 50% or more?
class 1

Could you tell me if the measured inhibition at 3 µM of COc1cc2c(Oc3cc4cnccc4nc3C)ccnc2cc1OCCO reaches 50% or more?
class 1

Could you tell me if the measured inhibition at 3 µM of COc1cc2c(Oc3cc4ccccc4nc3C)ccnc2cc1OCC(CO)(CO)CO reaches 50% or more?
class 1

Could you tell me if the measured inhibition at 3 µM of COc1cc2nccc(Oc3cccnc3OC3CCCC3)c2cc1OC reaches 50% or more?
class 0

Could you tell me if the measured inhibition at 3 µM of COc1cc2nccc(Oc3cc4ccccc4nc3CCC(C)C)c2cc1OC reaches 50% or more?
class 0
